human IL-23R (Homo sapiens): recorded IC50 for assorted compounds
Sequence (Q5VWK5 24-353 limits assumed): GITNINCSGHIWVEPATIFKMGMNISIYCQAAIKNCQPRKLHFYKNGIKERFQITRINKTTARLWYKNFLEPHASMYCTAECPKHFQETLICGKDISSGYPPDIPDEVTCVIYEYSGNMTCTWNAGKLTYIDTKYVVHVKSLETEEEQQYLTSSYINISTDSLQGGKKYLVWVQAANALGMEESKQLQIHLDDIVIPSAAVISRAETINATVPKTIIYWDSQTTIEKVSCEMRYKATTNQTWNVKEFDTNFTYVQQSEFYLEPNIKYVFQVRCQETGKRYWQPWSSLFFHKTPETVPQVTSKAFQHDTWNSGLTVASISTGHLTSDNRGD
Numbered stars: 1 amine (or outer) side, 2 acyl side, 3 side chain; on linkers, the order of the positions; unused ones are H or OH. Bridge positions count the residues as written; N and C are the ends. Square brackets hold non-standard residues; d marks the D form. Peptide text beside a SMILES is read from it. * marks the point of attachment. Lys(Me,(CH2)4NMe(CH2)5CO) = CN(CCCCCC(=O)[*:3])CCCCN(C)CCCC[C@H](N[*:1])C(=O)[*:2]; Trp(7-Me) = Cc1cccc2c(C[C@H](N)C(=O)O)c[nH]c12; 2Nal = N[C@@H](Cc1ccc2ccccc2c1)C(=O)O; Suberoyl = O=C(CCCCCCC(=O)[*:2])[*:1]; C12 diacid = O=C(O)CCCCCCCCCCC(=O)*; 3Pal = N[C@@H](Cc1cccnc1)C(=O)O; Thp = NC1(C(=O)O)CCOCC1; Me2NCH2CH2 = CN(C)CC*; Aib = CC(C)(N)C(=O)O; Sar = CNCC(=O)O
The answer is to be given in nM; state only the numeric part.

Field: example entries. Status: answers known.
compound="Cc1cccc2c(C[C@@H]3NC(=O)CCCCCCC(=O)NCCCC[C@@H](C(=O)N[C@@H](CC(N)=O)C(=O)N[C@@H](Cc4cccnc4)C(=O)N(C)CC(N)=O)NC(=O)C(C)(C)NC(=O)[C@H](Cc4ccc5ccccc5c4)NC(=O)[C@H](Cc4ccc(OCCN(C)C)cc4)NC(=O)C4(CCOCC4)NC(=O)[C@H](CCC(N)=O)NC3=O)c[nH]c12 [compound 12] ([Trp(7-Me)]Q[Thp]Y(Me2NCH2CH2)[2Nal][Aib]KN[3Pal][Sar]-NH2; linker N-7 via Suberoyl)" value_type=IC50 units_symbol=nM quantitative_readout=0.61
compound="CC(=O)NCCCC[C@@H]1NC(=O)[C@H](Cc2c[nH]c3c(C)cccc23)NC(=O)CCCCCN(C)CCCCN(C)CCCC[C@@H](C(=O)N[C@@H](CC(N)=O)C(=O)N[C@@H](Cc2cccnc2)C(=O)N(C)CC(N)=O)NC(=O)C(C)(C)NC(=O)[C@H](Cc2ccc3ccccc3c2)NC(=O)[C@H](Cc2ccc(OCCN(C)C)cc2)NC(=O)C2(CCOCC2)NC1=O [compound 18] ([Trp(7-Me)]K(Ac)[Thp]Y(Me2NCH2CH2)[2Nal][Aib][Lys(Me,(CH2)4NMe(CH2)5CO)]N[3Pal][Sar]-NH2; lactam N-7)" value_type=IC50 units_symbol=nM quantitative_readout=0.68

Shifting focus to the compound that follows.
Ask | Query IC50 on human IL-23R (Homo sapiens) for Cc1cccc2c(C[C@@H]3NC(=O)CCCCCCCCCCC(=O)NCCCC[C@@H](C(=O)N[C@@H](CC(N)=O)C(=O)N[C@@H](Cc4cccnc4)C(=O)N(C)CC(N)=O)NC(=O)C(C)(C)NC(=O)[C@H](Cc4ccc5ccccc5c4)NC(=O)[C@H](Cc4ccc(OCCN(C)C)cc4)NC(=O)C4(CCOCC4)NC(=O)[C@H](CCC(N)=O)NC3=O)c[nH]c12 [compound 10] ([Trp(7-Me)]Q[Thp]Y(Me2NCH2CH2)[2Nal][Aib]KN[3Pal][Sar]-NH2; linker N-7 via C12 diacid)
Reply | 0.55

====

- PROTOCOL: Protease stability in simulated intestinal fluids (FaSSIF) (Table 7)
- Format: in vitro ADME
- CONDITION_LABEL: fassif with pancreatin, 120 min, 37° C., read-out: Remaining percentage of peptide compound, FaSSIF 120 (min)
Bridge positions count the residues as written; N and C are the ends. Square brackets hold non-standard residues; d marks the D form. Peptide text beside a SMILES is read from it. * marks the point of attachment. Trp(7-Me) = Cc1cccc2c(C[C@H](N)C(=O)O)c[nH]c12; 2Nal = N[C@@H](Cc1ccc2ccccc2c1)C(=O)O; 3Pal = N[C@@H](Cc1cccnc1)C(=O)O; Aun = NCCCCCCCCCCC(=O)O; Thp = NC1(C(=O)O)CCOCC1; Me2NCH2CH2 = CN(C)CC*; Aib = CC(C)(N)C(=O)O; Sar = CNCC(=O)O
VALUE_TYPE: remaining at 2 h, 1 µM (%)
The answer is to be given in %; state only the numeric part.

compound="CC(=O)NCCCC[C@@H]1NC(=O)[C@H](Cc2c[nH]c3c(C)cccc23)NC(=O)CCCCCCCCCCNC(=O)CC[C@@H](C(=O)N[C@@H](CC(N)=O)C(=O)N[C@@H](Cc2cccnc2)C(=O)N(C)CC(N)=O)NC(=O)C(C)(C)NC(=O)[C@H](Cc2ccc3ccccc3c2)NC(=O)[C@H](Cc2ccc(OCCN(C)C)cc2)NC(=O)C2(CCOCC2)NC1=O [compound 16] ([Aun][Trp(7-Me)]K(Ac)[Thp]Y(Me2NCH2CH2)[2Nal][Aib]EN[3Pal][Sar]-NH2; lactam N-8)" quantitative_readout=85

Shifting focus to the compound that follows.
Ask | Tell me the measured remaining at 2 h, 1 µM of Cc1cccc2c(C[C@@H]3NC(=O)CCCCCCCCCCNC(=O)CC[C@@H](C(=O)N[C@@H](CC(N)=O)C(=O)N[C@@H](Cc4cccnc4)C(=O)N(C)CC(N)=O)NC(=O)C(C)(C)NC(=O)[C@H](Cc4ccc5ccccc5c4)NC(=O)[C@H](Cc4ccc(OCCN(C)C)cc4)NC(=O)C4(CCOCC4)NC(=O)[C@H](CC(C)C)NC3=O)c[nH]c12 [compound 7] ([Aun][Trp(7-Me)]L[Thp]Y(Me2NCH2CH2)[2Nal][Aib]EN[3Pal][Sar]-NH2; lactam N-8) , please.
Reply | 81

====

- System: IL-23 induced STAT3 signaling (IL-23 receptor) in HEK-Blue IL-23 cells
- PROTOCOL: Inhibition of IL-23 induced STAT3 signaling in HEK-Blue IL-23 cells, SEAP reporter (Table 9)
- Assay type: cell-based
- CONDITION_LABEL: human IL23 0.25 ng/ml, overnight, read-out: Inhibition of IL-23 induced pSTAT3 (IC50 nM)
Numbered stars: 1 amine (or outer) side, 2 acyl side, 3 side chain; on linkers, the order of the positions; unused ones are H or OH. Bridge positions count the residues as written; N and C are the ends. Square brackets hold non-standard residues; d marks the D form. Peptide text beside a SMILES is read from it. * marks the point of attachment. Lys(Me,(CH2)4NMe(CH2)4CO) = CN(CCCCC(=O)[*:3])CCCCN(C)CCCC[C@H](N[*:1])C(=O)[*:2]; Trp(7-Me) = Cc1cccc2c(C[C@H](N)C(=O)O)c[nH]c12; αMeLys(Me2) = CN(C)CCCC[C@](C)(N)C(=O)O; 2Nal = N[C@@H](Cc1ccc2ccccc2c1)C(=O)O; 3Pal = N[C@@H](Cc1cccnc1)C(=O)O; Aun = NCCCCCCCCCCC(=O)O; Thp = NC1(C(=O)O)CCOCC1; Me2NCH2CH2 = CN(C)CC*; Sar = CNCC(=O)O
Let's look at some compounds and their measured IC50.
The answer is to be given in nM; state only the numeric part.

compound="CC(=O)NCCCC[C@@H]1NC(=O)[C@H](Cc2c[nH]c3c(C)cccc23)NC(=O)CCCCN(C)CCCCN(C)CCCC[C@@H](C(=O)N[C@@H](CO)C(=O)N[C@@H](Cc2cccnc2)C(=O)N(C)CC(N)=O)NC(=O)[C@](C)(CCCCN(C)C)NC(=O)[C@H](Cc2ccc3ccccc3c2)NC(=O)[C@H](Cc2ccc(OCCN(C)C)cc2)NC(=O)C2(CCOCC2)NC1=O [compound 44] ([Trp(7-Me)]K(Ac)[Thp]Y(Me2NCH2CH2)[2Nal][αMeLys(Me2)][Lys(Me,(CH2)4NMe(CH2)4CO)]S[3Pal][Sar]-NH2; lactam N-7)" quantitative_readout=1.19

Shifting focus to the compound that follows.
Ask | Query IC50 on IL-23 induced STAT3 signaling (IL-23 receptor) in HEK-Blue IL-23 cells for CC(=O)NCCCC[C@@H]1NC(=O)[C@H](Cc2c[nH]c3c(C)cccc23)NC(=O)CCCCCCCCCCNC(=O)CC[C@@H](C(=O)N[C@@H](CC(N)=O)C(=O)N[C@@H](Cc2cccnc2)C(=O)N(C)CC(N)=O)NC(=O)C2(CCOCC2)NC(=O)[C@H](Cc2ccc3ccccc3c2)NC(=O)[C@H](Cc2ccc(OCCN(C)C)cc2)NC(=O)C2(CCOCC2)NC1=O [compound 50] ([Aun][Trp(7-Me)]K(Ac)[Thp]Y(Me2NCH2CH2)[2Nal][Thp]EN[3Pal][Sar]-NH2; lactam N-8)
Reply | 0.19

====

- PROTOCOL: Solubility of peptide compounds in buffer formulations (Table 5)
- Format: physicochemical
- CONDITION_LABEL: Buffer pH 1.1 (head; method: 50 mM HCl pH 1.2), 2 h agitation, target 1 mg/ml; read-out: Solubility, Buffer pH 1.1
Numbered stars: 1 amine (or outer) side, 2 acyl side, 3 side chain; on linkers, the order of the positions; unused ones are H or OH. Bridge positions count the residues as written; N and C are the ends. Square brackets hold non-standard residues; d marks the D form. Peptide text beside a SMILES is read from it. * marks the point of attachment. Lys(Me,(CH2)4NMe(CH2)4CO) = CN(CCCCC(=O)[*:3])CCCCN(C)CCCC[C@H](N[*:1])C(=O)[*:2]; X3 = Cc1cccc2c(C[C@H](N[*:1])C(=O)[*:2])cn(C)c12; Trp(7-Me) = Cc1cccc2c(C[C@H](N)C(=O)O)c[nH]c12; Trp(1-Me) = Cn1cc(C[C@H](N)C(=O)O)c2ccccc21; NH(2-(3-pyridyl)ethyl) = c1cncc(CCN*)c1; 2Nal = N[C@@H](Cc1ccc2ccccc2c1)C(=O)O; C12 diacid = O=C(O)CCCCCCCCCCC(=O)*; 3Pal = N[C@@H](Cc1cccnc1)C(=O)O; Thp = NC1(C(=O)O)CCOCC1; Me2NCH2CH2 = CN(C)CC*; Aib = CC(C)(N)C(=O)O; Sar = CNCC(=O)O
VALUE_TYPE: solubility at 2 h

Field: example entries. Status: answers known.
molecule="CN(C)CCOc1ccc(C[C@@H]2NC(=O)C3(CCOCC3)NC(=O)[C@H](CCC(N)=O)NC(=O)[C@H](Cc3cn(C)c4ccccc34)NC(=O)CCCCN(C)CCCCN(C)CCCC[C@@H](C(=O)NCC(=O)NCCc3cccnc3)NC(=O)C(C)(C)NC(=O)[C@H](Cc3ccc4ccccc4c3)NC2=O)cc1 [compound 25] ([Trp(1-Me)]Q[Thp]Y(Me2NCH2CH2)[2Nal][Aib][Lys(Me,(CH2)4NMe(CH2)4CO)]G-{NH(2-(3-pyridyl)ethyl)}; lactam N-7)" result="≥ 950 µg/mL"
molecule="Cc1cccc2c(C[C@@H]3NC(=O)CCCCCCCCCCC(=O)NCCCC[C@@H](C(=O)N[C@@H](CC(N)=O)C(=O)N[C@@H](Cc4cccnc4)C(=O)N(C)CC(N)=O)NC(=O)C(C)(C)NC(=O)[C@H](Cc4ccc5ccccc5c4)NC(=O)[C@H](Cc4ccc(OCCN(C)C)cc4)NC(=O)C4(CCOCC4)NC(=O)[C@H](CCC(N)=O)NC3=O)c[nH]c12 [compound 10] ([Trp(7-Me)]Q[Thp]Y(Me2NCH2CH2)[2Nal][Aib]KN[3Pal][Sar]-NH2; linker N-7 via C12 diacid)" result="≥ 890 µg/mL"
molecule="CN(C)CCOc1ccc(C[C@@H]2NC(=O)C3(CCOCC3)NC(=O)[C@H](CCC(N)=O)NC(=O)[C@H](Cc3cn(C)c4ccccc34)NC(=O)CCCCN(C)CCCCN(C)CCCC[C@@H](C(=O)N[C@@H](CO)C(=O)N[C@@H](Cc3cccnc3)C(=O)N(C)CC(N)=O)NC(=O)C(C)(C)NC(=O)[C@H](Cc3ccc4ccccc4c3)NC2=O)cc1 [compound 40] ([Trp(1-Me)]Q[Thp]Y(Me2NCH2CH2)[2Nal][Aib][Lys(Me,(CH2)4NMe(CH2)4CO)]S[3Pal][Sar]-NH2; lactam N-7)" result="≥ 980 µg/mL"

Ask | Tell me the measured solubility at 2 h of Cc1cccc2c(C[C@@H]3NC(=O)CCCCN(C)CCCCN(C)CCCC[C@@H](C(=O)NCC(=O)NCCc4cccnc4)NC(=O)C(C)(C)NC(=O)[C@H](Cc4ccc5ccccc5c4)NC(=O)[C@H](Cc4ccc(OCCN(C)C)cc4)NC(=O)C4(CCOCC4)NC(=O)[C@H](CC(C)C)NC3=O)cn(C)c12 [compound 49] ([X3]L[Thp]Y(Me2NCH2CH2)[2Nal][Aib][Lys(Me,(CH2)4NMe(CH2)4CO)]G-{NH(2-(3-pyridyl)ethyl)}; lactam N-7) , please.
Reply | ≥ 900 µg/mL

Ask | Tell me the measured solubility at 2 h of CC(=O)NCCCC[C@@H]1NC(=O)[C@H](Cc2c[nH]c3ccccc23)NC(=O)CCCCN(C)CCCCN(C)CCCC[C@@H](C(=O)N[C@@H](CO)C(=O)N[C@@H](Cc2cccnc2)C(=O)N(C)CC(N)=O)NC(=O)C(C)(C)NC(=O)[C@H](Cc2ccc3ccccc3c2)NC(=O)[C@H](Cc2ccc(OCCN(C)C)cc2)NC(=O)C2(CCOCC2)NC1=O [compound 42] (WK(Ac)[Thp]Y(Me2NCH2CH2)[2Nal][Aib][Lys(Me,(CH2)4NMe(CH2)4CO)]S[3Pal][Sar]-NH2; lactam N-7) , please.
Reply | ≥ 1010 µg/mL
